The values you see were collected from Sander's compilation of Henry's law constants (doi:10.1063/1.555654).

Assay: Henry solubility constant Hcp at 298.15 K (mol/(m3 Pa))
Conditions: reference: Mackay and Shiu (1981)
Please note: MET applies when Henry solubility constant Hcp is 0.008 or greater, and NOT MET applies otherwise.

(Q) Is the recorded value of Henry solubility constant Hcp equal to or greater than 0.008 for this molecule? Clc1cc(Cl)c(Cl)c(Cl)c1
(A) NOT MET

(Q) Is the recorded value of Henry solubility constant Hcp equal to or greater than 0.008 for this molecule? c1ccc2c(c1)ccc1ccccc12
(A) MET

(Q) Is the recorded value of Henry solubility constant Hcp equal to or greater than 0.008 for this molecule? Brc1ccccc1
(A) NOT MET

(Q) Is the recorded value of Henry solubility constant Hcp equal to or greater than 0.008 for this molecule? Clc1ccccc1
(A) NOT MET

(Q) Is the recorded value of Henry solubility constant Hcp equal to or greater than 0.008 for this molecule? Cc1cccc2ccccc12
(A) MET

(Q) Is the recorded value of Henry solubility constant Hcp equal to or greater than 0.008 for this molecule? Clc1ccc2ccccc2c1
(A) MET

(Q) Is the recorded value of Henry solubility constant Hcp equal to or greater than 0.008 for this molecule? c1ccc(-c2ccccc2)cc1
(A) MET

(Q) Is the recorded value of Henry solubility constant Hcp equal to or greater than 0.008 for this molecule? c1ccc2cc3ccccc3cc2c1
(A) MET

(Q) Is the recorded value of Henry solubility constant Hcp equal to or greater than 0.008 for this molecule? c1cc2c3c(cccc3c1)CC2
(A) NOT MET

(Q) Is the recorded value of Henry solubility constant Hcp equal to or greater than 0.008 for this molecule? Clc1cccc2ccccc12
(A) NOT MET

(Q) Is the recorded value of Henry solubility constant Hcp equal to or greater than 0.008 for this molecule? Clc1ccc(Cl)cc1
(A) NOT MET

(Q) Is the recorded value of Henry solubility constant Hcp equal to or greater than 0.008 for this molecule? c1ccc2c(c1)Cc1ccccc1-2
(A) MET
